Measured values drawn from patent US10772928B2 for this set.

- Test System: T1, nSR100 (Mus musculus, UniProt Q8BKA3)
- T1 construct: host or cells: mouse N2A cells
- T1 sequence (Q8BKA3 1-608): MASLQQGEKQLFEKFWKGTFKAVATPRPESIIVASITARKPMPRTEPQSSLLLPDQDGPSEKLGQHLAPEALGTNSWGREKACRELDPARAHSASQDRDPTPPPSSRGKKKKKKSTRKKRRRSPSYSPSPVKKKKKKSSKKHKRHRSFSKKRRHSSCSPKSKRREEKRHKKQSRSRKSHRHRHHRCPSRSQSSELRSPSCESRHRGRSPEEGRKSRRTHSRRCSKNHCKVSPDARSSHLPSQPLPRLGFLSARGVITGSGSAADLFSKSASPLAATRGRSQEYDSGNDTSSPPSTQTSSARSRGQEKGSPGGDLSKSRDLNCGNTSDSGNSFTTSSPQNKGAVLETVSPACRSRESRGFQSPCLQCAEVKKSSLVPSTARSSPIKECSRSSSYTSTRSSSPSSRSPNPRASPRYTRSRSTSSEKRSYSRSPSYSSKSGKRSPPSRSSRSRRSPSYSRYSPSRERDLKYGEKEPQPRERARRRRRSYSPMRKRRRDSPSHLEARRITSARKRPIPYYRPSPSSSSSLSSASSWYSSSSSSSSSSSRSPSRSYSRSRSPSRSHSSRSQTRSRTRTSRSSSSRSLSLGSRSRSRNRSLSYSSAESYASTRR
- Run Description: AP-MS nSR100 interaction partners from mouse N2A cells (Table 5)
- Format: binding
- Condition Set: bait Srrm4, biological replicate 1 (first number of the cell), AP-MS
Recorded Endpoint: Spectra (number of spectra for the prey in the purification of the bait)
// return just the number, without any unit appended

Field Spectra (number of spectra for the prey in the purification of the bait) (entry Sap18 (protein, UniProt O55128 2-153, looked up) Histone deacetylase complex …: AVESRVTQEEIKKEPEKPIDREKTCPLLLRVFTTNNGRHHRMDEFSRGNVPSSELQIYTWMDATLKELTSLVKEVYPEARKKGTHFNFAIVFMDLKRPGYRVKEIGSTMSGRKGTDDSMTLQSQKFQIGDYLDIAITPPNRAPPSSGRMRPY ) reads 17

What the record says about Rab5c (protein, UniProt P35278 1-216, looked up) Ras-related protein Rab-5C: MAGRGGAARPNGPAAGNKICQFKLVLLGESAVGKSSLVLRFVKGQFHEYQESTIGAAFLTQTVCLDDTTVKFEIWDTAGQERYHSLAPMYYRGAQAAIVVYDITNTDTFARAKNWVKELQRQASPNIVIALAGNKADLASKRAVEFQEAQAYADDNSLLFMETSAKTAMNVNEIFMAIAKKLPKNEPQNAAGAPGRTRGVDLQESNPASRSQCCSN : Spectra (number of spectra for the prey in the purification of the bait) is 3

Documented Spectra (number of spectra for the prey in the purification of the bait) of Grpel1 (protein, UniProt Q99LP6 28-217, looked up) GrpE protein homolog 1, …: CTATKQKNNGQNLDEDLGHCEPKTDPPSADKTLLEEKAKLEEQLRETMEKYKRALADTENLRQRSQKLVEEAKLYGIQGFCKDLLEVADILEKATQSVPKEEISNNNPHLKSLYEGLVMTEVQIQKVFTKHGLLRLDPIGAKFDPYEHEALFHTPVEGKEPGTVALVSKVGYKLHGRTLRPALVGVVKDA : 16

The molecule listed as Snrpa (protein, UniProt Q62189 1-287, looked up) U1 small nuclear …: MATIATMPVPETRANHTIYINNLNEKIKKDELKKSLYAIFSQFGQILDILVSRIMKMRGQAFVIFKEVTSATNALRSMQGFPFYDKPMRIQYAKTDSDIIAKMKGTYVERDRKREKRKPKSQETPAAKKAVQGGAAAPVVGAVQPVPGMPPMPQAPRIMHHMPGQPPYMPPPGMIPPPGLAPGQIPPGAMPPQQLMPGQMPPAQPLSENPPNHILFLTNLPEETNELMLSMLFNQFPGFKEVRLVPGRHDIAFVEFDNEVQAGAARDALQGFKITQNNAMKISFAKK has a reported Spectra (number of spectra for the prey in the purification of the bait) of 38
